target: QPCT (Homo sapiens, UniProt Q16769); construct: purchased Origine (OriGene) TP700028; assay: Assay A: biochemical QPCT activity assay (MALDI-TOF MS, CD47 peptide substrate); conditions: Table 3, prior art compounds, read-out: Inhibition of QPCT: IC50
Sequence (Q16769 29-361): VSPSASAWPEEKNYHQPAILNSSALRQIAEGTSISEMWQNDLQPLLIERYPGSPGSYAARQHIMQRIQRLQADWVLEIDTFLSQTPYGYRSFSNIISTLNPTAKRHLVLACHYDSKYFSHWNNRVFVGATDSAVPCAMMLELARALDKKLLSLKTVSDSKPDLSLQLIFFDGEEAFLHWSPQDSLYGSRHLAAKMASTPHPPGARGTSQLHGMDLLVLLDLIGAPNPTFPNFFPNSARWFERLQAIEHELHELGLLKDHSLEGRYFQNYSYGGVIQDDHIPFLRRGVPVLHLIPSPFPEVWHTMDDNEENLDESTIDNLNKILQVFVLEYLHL
MEASURED ATTRIBUTE: IC50 (µM)

[
  {
    "COMPOUND": "Cn1cnnc1C1CCN(c2c(-c3ccnnc3)ccc(Cl)c2C#N)CC1 [Compound 33, reference compound]",
    "TARGET ENTITY": "QPCT (Homo sapiens, UniProt Q16769)",
    "ENDPOINT RESULT": 0.002
  },
  {
    "COMPOUND": "Cn1cnnc1C1CCN(c2c(C#N)cccc2-c2cnc3[nH]nc(O)c3c2)CC1 [Compound 113, reference compound]",
    "TARGET ENTITY": "QPCT (Homo sapiens, UniProt Q16769)",
    "ENDPOINT RESULT": 0.164
  },
  {
    "COMPOUND": "Cn1cnnc1C1CCN(c2c(C#N)cccc2-c2cnc3cn[nH]c3c2)CC1 [Compound 125, reference compound]",
    "TARGET ENTITY": "QPCT (Homo sapiens, UniProt Q16769)",
    "ENDPOINT RESULT": 0.446
  },
  {
    "COMPOUND": "Cn1cnnc1C1CCN(c2c(C#N)cccc2-c2ccc3ocnc3c2)CC1 [Compound 15, reference compound]",
    "TARGET ENTITY": "QPCT (Homo sapiens, UniProt Q16769)",
    "ENDPOINT RESULT": 1.08
  },
  {
    "COMPOUND": "Cn1cnnc1C1CCN(c2c(C#N)cccc2-c2ccc3nonc3c2)CC1 [Compound 19, reference compound]",
    "TARGET ENTITY": "QPCT (Homo sapiens, UniProt Q16769)",
    "ENDPOINT RESULT": 0.106
  },
  {
    "COMPOUND": "COc1ccc(-c2cnc3nccn3c2)c(N2CCC(c3nncn3C)CC2)c1C#N [Compound 94, reference compound]",
    "TARGET ENTITY": "QPCT (Homo sapiens, UniProt Q16769)",
    "ENDPOINT RESULT": 0.003
  },
  {
    "COMPOUND": "Cn1cnnc1C1CCN(c2c(C#N)cccc2-c2cnc3nccn3c2)CC1 [Compound 93, reference compound]",
    "TARGET ENTITY": "QPCT (Homo sapiens, UniProt Q16769)",
    "ENDPOINT RESULT": 0.005
  }
]

---

test system: SIRPα signalling induced by A549 cells; test: Assay B: SIRPα signalling assay using A549 cells; assay type: cell-based; details: Homo sapiens, Table 5, prior art compounds, read-out: Inhibition of SIRPα signalling induced by A549 cells: IC50
Please use Y for IC50 under 400 nM and N for everything else, ties included.

[
  {
    "COMPOUND": "Cn1cnnc1C1CCN(c2c(C#N)cccc2-c2cncc3c2cnn3C)CC1 [Compound 4, reference compound]",
    "GROUP": "N"
  },
  {
    "COMPOUND": "Cn1cnnc1C1CCN(c2c(C#N)cccc2-c2ccnnc2)CC1 [Compound 11]",
    "GROUP": "Y"
  },
  {
    "COMPOUND": "COc1ccc(-c2cnc3nccn3c2)c(N2CCC(c3nncn3C)CC2)c1C#N [Compound 94, reference compound]",
    "GROUP": "N"
  },
  {
    "COMPOUND": "COc1ccc(-c2ccnnc2)c(N2CCC(c3nncn3C)CC2)c1C#N [Compound 26, reference compound]",
    "GROUP": "Y"
  },
  {
    "COMPOUND": "Cn1cncc1C1CCN(c2c(C#N)cccc2-c2ccc(F)nc2)CC1 [QP5038, reference compound]",
    "GROUP": "Y"
  },
  {
    "COMPOUND": "Cn1cnnc1C1CCN(c2c(C#N)cccc2-c2cnc3nccn3c2)CC1 [Compound 93, reference compound]",
    "GROUP": "Y"
  },
  {
    "COMPOUND": "Cn1c(N)nnc1C1CCN(c2c(C#N)cccc2-c2ccc(F)nc2)CC1 [Compound 14, reference compound]",
    "GROUP": "Y"
  },
  {
    "COMPOUND": "Cn1cnnc1C1CCN(c2c(C#N)cccc2-c2cnc3cn[nH]c3c2)CC1 [Compound 125, reference compound]",
    "GROUP": "N"
  },
  {
    "COMPOUND": "Cn1cnnc1C1CCN(c2c(C#N)cccc2-c2ccc3nonc3c2)CC1 [Compound 19, reference compound]",
    "GROUP": "Y"
  },
  {
    "COMPOUND": "Cn1cnnc1C1CCN(c2c(C#N)cccc2-c2ccc(F)nc2)CC1 [(1)/QP5020, reference compound]",
    "GROUP": "Y"
  },
  {
    "COMPOUND": "Cn1cnnc1C1CCN(c2c(C#N)cccc2-c2cnc3[nH]nc(O)c3c2)CC1 [Compound 113, reference compound]",
    "GROUP": "N"
  },
  {
    "COMPOUND": "Cn1cnnc1C1CCN(c2c(C#N)cccc2-c2ccc3ocnc3c2)CC1 [Compound 15, reference compound]",
    "GROUP": "N"
  },
  {
    "COMPOUND": "Cn1cnnc1C1CCN(c2c(-c3ccnnc3)ccc(Cl)c2C#N)CC1 [Compound 33, reference compound]",
    "GROUP": "Y"
  }
]
